We begin with a simple list: items and their reported inhibition.
Target: Endothelin-1 receptor (Homo sapiens)
Sequence (whole entry): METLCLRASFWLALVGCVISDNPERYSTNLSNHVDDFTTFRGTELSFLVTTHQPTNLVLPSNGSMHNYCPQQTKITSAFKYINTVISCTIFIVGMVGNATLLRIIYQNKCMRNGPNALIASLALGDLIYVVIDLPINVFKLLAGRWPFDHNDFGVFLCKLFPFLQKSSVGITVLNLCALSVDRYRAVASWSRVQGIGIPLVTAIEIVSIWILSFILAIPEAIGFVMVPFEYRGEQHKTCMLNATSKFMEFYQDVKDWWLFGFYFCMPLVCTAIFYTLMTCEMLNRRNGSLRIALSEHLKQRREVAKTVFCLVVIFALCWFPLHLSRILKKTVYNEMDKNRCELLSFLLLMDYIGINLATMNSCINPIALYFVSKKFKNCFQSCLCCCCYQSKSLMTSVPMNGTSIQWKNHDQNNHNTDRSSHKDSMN
Test: Percent inhibition at 10 uM of displacement of radiolabeled endothelin-1 [125-I]ET-1 from membranes prepared from cloned human Endothelin A receptor expressed in mouse erythroleukemic (MEL) cells
Type: cell membranes
quantity_name: inhibition (%)

>>> measured("Cc1cnc(NS(=O)(=O)c2cccc3c(N(C)C)cccc23)cn1")
91
>>> measured("Cc1ccc(NS(=O)(=O)c2cccc3c(N(C)C)cccc23)nc1")
79
>>> measured("CN(C)c1cccc2c(S(=O)(=O)Nc3cnc(Br)cn3)cccc12")
96
>>> measured("CN(C)c1cccc2c(S(=O)(=O)Nc3ccc(I)cn3)cccc12")
84
>>> measured("Cc1cc(Cl)nnc1NS(=O)(=O)c1cccc2c(N(C)C)cccc12")
89
>>> measured("Cc1cc(Br)cnc1NS(=O)(=O)c1cccc2c(N(C)C)cccc12")
94
>>> measured("COc1nc(C)cnc1NS(=O)(=O)c1cccc2c(N(C)C)cccc12")
98
>>> measured("CN(C)c1cccc2c(S(=O)(=O)Nc3ncc(Br)nc3O)cccc12")
81
>>> measured("Cc1cc(NS(=O)(=O)c2cccc3c(N(C)C)cccc23)nnc1Cl")
64
>>> measured("COc1ccc(NS(=O)(=O)c2cccc3c(N(C)C)cccc23)nn1")
92
>>> measured("CNc1cccc2c(S(=O)(=O)Nc3ncc(Br)nc3OC)cccc12")
100
